Entry source: a melting point compilation (Tetko et al.; mined from patent text by program, amines drawn as free bases though some values may be those of a salt)

Measured endpoint: melting point

>>> print(df.to_string())
                                   compound  measured_endpoint  experimental_result
0  CN1CCN(C2=NC(=O)C(=Cc3cccc(-c4ccc(O)c(C56CC7CC(CC(C7)C5)C6)c4)c3)S2)CC1      melting point        291 to 294 °C
1      Nc1nc2c(ncn2CCOCP(=O)(O)O)c(=O)[nH]1      melting point             > 260 °C
2  CCCCCC1OCc2cc(C(N)=O)ccc2O1 (stereo unspecified)      melting point        162 to 163 °C
3  O=C(NCCc1ccccn1)c1ccc2cc(C(=O)O)[nH]c2c1      melting point        198 to 199 °C
4  CC(=O)C(=[N+]=[N-])C(=O)CCc1ccc(S(=O)(=O)Cl)cc1      melting point        58 to 59.5 °C
5          CCOC(=O)c1ccc(NC(=O)Cn2ccnc2)cc1      melting point        185 to 187 °C

---

Below is a list of entries, each paired with its recorded melting point value.
Measured endpoint: melting point

>>> print(df.to_string())
                                    compound  experimental_result
 0  COc1ccc(NC(=O)Nc2ccc(Cl)c(Cl)c2)cc1NS(=O)(=O)c1cccs1        205 to 208 °C
 1  COC1=CC23CCN(C)C(Cc4ccc(OC)c(O)c42)C3=CC1C (configuration not stated)         97 to 100 °C
 2  CCCCNC(=O)NS(=O)(=O)c1ccc(CCNC(=O)N2Cc3ccc(C)cc3C2=O)cc1        169 to 171 °C
 3  Cn1c(=O)[nH]c(=O)n(-c2cc(N)c(F)cc2Cl)c1=O        244 to 245 °C
 4           O=C(c1ccccc1CBr)c1ccc(Cl)cc1CBr        152 to 153 °C
 5  COc1ccc(C(=O)Nc2ccc(-n3nc(C(F)(F)F)cc3C(F)(F)F)cc2)cc1        205 to 207 °C
 6  OCCCCCCc1ccc(OCc2coc(/C=C/c3ccccc3)n2)cc1          94 to 95 °C
 7                   CNC1(c2cccs2)CCC(=O)CC1          72 to 74 °C
 8  O=C(Nc1ccc(OCCCN2CCNCC2)c2ccccc12)c1cc(F)cc(N2CCCCC2)c1          70 to 72 °C
 9                   CON=C(C(C)=O)C(=O)N(C)C        73.5 to 75 °C
10                        OCCCc1cccc2ccncc12          66 to 69 °C
11          FC(F)(F)c1nnc2ccc(-c3ccccc3)nn12        183 to 184 °C

---

Measured endpoint: melting point

                                    compound  experimental_result
 0    CN(C(=O)Nc1ccc(Cl)c(Cl)c1)S(=O)(=O)CCl               119 °C
 1   COC(=O)c1ccc(S(C)(=O)=O)c(COC(C)=O)c1Cl        165 to 168 °C
 2  CC(=O)NC[C@H]1CN(c2ccc(C(=O)c3cnc4cnccn34)cc2)C(=O)O1        254 to 256 °C
 3      Cc1nc(N2CCN(Cc3ccccc3)C2=O)sc1C(N)=O        217 to 218 °C
 4  O=C1C=CC(=O)N1c1ccc(Oc2ccc3ccc(Oc4ccc(N5C(=O)C=CC5=O)cc4)cc3c2)cc1        162 to 164 °C
 5  COC(=O)C1CC2=C(CO1)C(=O)C=CC2=O (stereo not drawn)          55 to 58 °C
 6  O=C(CCc1ccc2c(c1)CCCC2)N1C(=O)OC[C@@H]1Cc1ccccc1          92 to 93 °C
 7                   Cc1c(CO)c(Cl)nc2ccccc12             > 260 °C
 8     CCOC(=O)Nc1nn(C)c2cc(OCc3ccccc3)ccc12               204 °C
 9  CC(C)c1nc(COC(=O)N[C@H](C(=O)N[C@@H](Cc2ccccc2)[C@@H](O)C[C@H](Cc2ccccc2)NC(=O)OCc2cncs2)C(C)C)cs1        172 to 174 °C
10  CCC1(c2cccs2)OCC(=O)Nc2ccc(-c3ccc(F)c(C#N)c3)cc21 (stereo not drawn)        197 to 199 °C
11  Cc1ccc(CC(=O)NC(NC(=NC#N)Nc2cccnc2C)C(C)(C)C)cc1F (stereo not drawn)          75 to 77 °C
12      Cc1noc(NC(=O)C2c3ccccc3Oc3ccccc32)n1               208 °C
13             COC(=O)c1csc(-c2ccc(OC)cc2)n1          67 to 79 °C
14  Cc1nc2cc(-c3ccc(C=C4SC(=O)NC4=O)cn3)cc(C34CC5CC(CC(C5)C3)C4)c2o1             > 360 °C
15  O=C1c2ccccc2C(=O)N1CCCOc1ccc(OCc2ccccc2)cc1        141 to 143 °C
16  COC(=O)c1ccccc1NC(=O)NCC1(c2ccccc2)CCCCC1          91 to 94 °C
17  CC12C=CC(=O)CC1CCC1C2CCC2(C)C(C(=O)NC3(C#N)CCCCC3)CCC12 (stereo not drawn)        292 to 300 °C
18             COc1cc(Br)cc([N+](=O)[O-])c1N        137 to 138 °C
19  CC(=O)NC[C@H]1CN(c2ccc(C3CCN(CCF)CC3)c(F)c2)C(=O)O1        155 to 157 °C
20  Cc1cccc(N(CCC(=O)O)Cc2ccc3nc(N)n(Cc4nc(C)ccc4O)c3c2)c1               165 °C
21              Nc1nc2ccc(Oc3ccc(F)cc3)cc2s1        126 to 128 °C
22  Cc1cc(C)c2nc(C3CC3)n(Cc3ccc(C4(C(=O)O)Cc5ccccc5C4)s3)c2n1        250 to 252 °C
23                         N#CSc1nc(Cl)ncc1F        103 to 104 °C
24  CNC(=S)SCCC(=O)N1CCC[C@H]1C(=O)OC(C)(C)C        129 to 130 °C
25  COC(=O)Cc1ccc(OCCN2CCN(c3cc(Cl)nnc3Cl)CC2)cc1          84 to 86 °C
26  COc1cccc(COCCCn2ccnc2)c1NC(=O)CC1c2ccccc2Oc2ccccc21        155 to 156 °C
27       O=C(Nc1ccc2ccc(Cl)nc2n1)c1ccc(Cl)s1               275 °C
